- Test system: MDA-MB-231
- Assay: Antiproliferative activity against human MDA-MB-231 cells assessed as reduction in cell viability incubated for 72 hrs by MTT assay
- Format: functional, cell-based
- Condition set: MDA-MB-231, 72 h
Property measured: pIC50
Reminder that pIC50 means the negative base-10 logarithm of the concentration expressed in mol/L.

Kindly note the recorded pIC50 for `CC(=O)OC[C@]12Oc3c(-c4ccc(O)c5c4O[C@@]4(COC(C)=O)C(=C(O)C[C@@H](C)[C@H]4OC(C)=O)C5=O)ccc(O)c3C(=O)C1=C(O)C[C@@H](C)[C@H]2OC(C)=O` , which is 5.43

###

- Test system: J82
- Assay: Induction of apoptosis in human J82 cells assessed as depolarization of mitochondrial membrane potential incubated for 2 hrs by TMRE staining based flow cytometry
- Assay type: functional, cell-based
- Condition set: J82, 2 h
Property measured: IC50 (µM)
Numeric only. Scale: µM

Kindly note the recorded IC50 for `CC(=O)OC[C@]12Oc3c(-c4ccc(O)c5c4O[C@@]4(COC(C)=O)C(=C(O)C[C@@H](C)[C@H]4OC(C)=O)C5=O)ccc(O)c3C(=O)C1=C(O)C[C@@H](C)[C@H]2OC(C)=O` , which is 3.34

These entries and their values trace back to ChEMBL document CHEMBL4396943.
